Would you mind telling me the reported MIC of each entry?
system: Salmonella typhimurium LT-2; assay: MIC by serial dilution method on agar plates; assay type: cell-based; conditions: Salmonella enterica; Salmonella typhimurium LT-2; serial dilution on agar plates; read-out: Minimum inhibitory concentrations (MIC.)
Report the value in µg/mL with no unit label.

Request: Under Salmonella typhimurium LT-2, report MIC for CSC1=C(C(=O)O)N2C(=O)C(NC(=O)Cc3ccsc3)C2OC1 (centres unmarked) [Example 2(b)]
Response: 1.56

Request: Under Salmonella typhimurium LT-2, report MIC for CSC1=C(C(=O)O)N2C(=O)C(NC(=O)C(C(=O)O)c3cccs3)C2OC1 (centres unmarked) [Example 3(b)]
Response: 0.78

Request: Under Salmonella typhimurium LT-2, report MIC for CSC1=C(C(=O)O)N2C(=O)C(NC(=O)Cc3cccs3)C2OC1 (centres unmarked) [Example 1(b)]
Response: 1.56

Request: Under Salmonella typhimurium LT-2, report MIC for CSC1=C(C(=O)O)N2C(=O)C(NC(=O)C(C(=O)O)c3ccsc3)C2OC1 (centres unmarked) [Example 4(b)]
Response: 0.2

Request: Under Salmonella typhimurium LT-2, report MIC for COC1=C(C(=O)O)N2C(=O)[C@@H](NC(=O)[C@H](N)C3=CCC=CC3)[C@H]2SC1 [Cefroxadine, reference compound]
Response: 6.25

----------
Would you mind telling me the reported MIC of each entry?
tested on: Protues rettgeri GN 624; assay: MIC by serial dilution method on agar plates; format: cell-based; details: Protues rettgeri GN 624; serial dilution on agar plates; read-out: Minimum inhibitory concentrations (MIC.)

Request: Supply measured MIC of CSC1=C(C(=O)O)N2C(=O)C(NC(=O)C(C(=O)O)c3cccs3)C2OC1 (centres unmarked) in your reply.
Response: 3.13 µg/mL

Request: Supply measured MIC of CSC1=C(C(=O)O)N2C(=O)C(NC(=O)C(C(=O)O)c3ccsc3)C2OC1 (centres unmarked) in your reply.
Response: 1.56 µg/mL

Request: Supply measured MIC of CSC1=C(C(=O)O)N2C(=O)C(NC(=O)Cc3ccsc3)C2OC1 (centres unmarked) in your reply.
Response: > 100 µg/mL

Request: Supply measured MIC of COC1=C(C(=O)O)N2C(=O)[C@@H](NC(=O)[C@H](N)C3=CCC=CC3)[C@H]2SC1 [Cefroxadine, reference compound] in your reply.
Response: > 100 µg/mL

Request: Supply measured MIC of CSC1=C(C(=O)O)N2C(=O)C(NC(=O)Cc3cccs3)C2OC1 (centres unmarked) in your reply.
Response: > 100 µg/mL

----------
Would you mind telling me the reported log10 MIC of each entry?
system: Staphylococcus aureus Smith; test: MIC by serial dilution method on agar plates; type: cell-based; details: Staphylococcus aureus Smith; serial dilution on agar plates; read-out: Minimum inhibitory concentrations (MIC.)
// units: µg/mL (pre-log); metric: MIC; scale: log10

Request: Supply measured log10 MIC of CSC1=C(C(=O)O)N2C(=O)C(NC(=O)C(C(=O)O)c3ccsc3)C2OC1 (centres unmarked) [Example 4(b)] in your reply.
Response: 0.50

Request: Supply measured log10 MIC of COC1=C(C(=O)O)N2C(=O)[C@@H](NC(=O)[C@H](N)C3=CCC=CC3)[C@H]2SC1 [Cefroxadine, reference compound] in your reply.
Response: 0.19

Request: Supply measured log10 MIC of CSC1=C(C(=O)O)N2C(=O)C(NC(=O)Cc3ccsc3)C2OC1 (centres unmarked) [Example 2(b)] in your reply.
Response: -1.00

Request: Supply measured log10 MIC of CSC1=C(C(=O)O)N2C(=O)C(NC(=O)C(C(=O)O)c3cccs3)C2OC1 (centres unmarked) [Example 3(b)] in your reply.
Response: -0.41

Request: Supply measured log10 MIC of CSC1=C(C(=O)O)N2C(=O)C(NC(=O)Cc3cccs3)C2OC1 (centres unmarked) [Example 1(b)] in your reply.
Response: -0.70
